# Tested on: ragweed (common ragweed, Ambrosia elatior)
# testName: Test B pre-/postemergence plant response
# Assay type: in vivo
# testConditions: Postemergence, 250 g ai/ha; scale 0 to 100 (0 no effect, 100 complete control)
// reported Plant response rating, Ragweed for each item listed
measuredParameter: Plant response rating, Ragweed

>>> numericvalue("CCCn1c(-c2ccc(F)cc2)ncc(C(=O)C2=C(O)CCCC2=O)c1=O")
95
>>> numericvalue("O=C1CCCC(O)=C1C(=O)c1cnc(-c2ccsc2)n(-c2ccccc2)c1=O")
75
>>> numericvalue("Cc1cc(-n2c(-c3ccccc3)ncc(C(=O)C3=C(O)CCCC3=O)c2=O)ccc1F")
98
>>> numericvalue("Cc1ccc(-c2ncc(C(=O)C3=C(O)CCCC3=O)c(=O)n2-c2ccccc2)cc1")
75
>>> numericvalue("COCCn1c(-c2cc(F)cc(F)c2)ncc(C(=O)C2=C(O)CCCC2=O)c1=O")
98
>>> numericvalue("COCCn1c(-c2ccccc2)ncc(C(=O)C2=C(O)CCCC2=O)c1=O")
98
